biological target: Adenosine receptor A2b (Homo sapiens); test: Displacement of [3H]PSB-603 from human recombinant adenosine A2B receptor expressed in CHO cells; type: cell-based
readoutLabel: Ki (nM)

Answered examples (2):
CCn1c(=O)[nH]c2nc(-c3ccc(S(=O)(=O)N4CCN(Cc5cccc(F)c5)CC4)cc3)[nH]c2c1=O	0.695
CCCn1c(=O)[nH]c2nc(-c3ccc(S(=O)(=O)N4CCN(Cc5ccc(F)cc5)CC4)cc3)[nH]c2c1=O	0.595

1: CCn1c(=O)[nH]c2nc(-c3ccc(S(=O)(=O)N4CCN(Cc5ccc(OC)cc5)CC4)cc3)[nH]c2c1=O
2: CCn1c(=O)[nH]c2nc(-c3ccc(S(=O)(=O)N4CCN(Cc5cccc(Cl)c5)CC4)cc3)[nH]c2c1=O
Input line: Which value of Ki is smaller, the one for 1 or the one for 2 ? Respond using the label that marks the chosen record.
Output line: 2

====

molecular target: Adenosine receptor A2b (Homo sapiens, UniProt P29275); assay: Antagonist activity at adenosine A2B receptor in human Jurkat T cells assessed as inhibition of NECA-induced increase in intracellular calcium concentration by fluorimetric measurement in presence of MSX-2
Sequence (P29275 whole entry): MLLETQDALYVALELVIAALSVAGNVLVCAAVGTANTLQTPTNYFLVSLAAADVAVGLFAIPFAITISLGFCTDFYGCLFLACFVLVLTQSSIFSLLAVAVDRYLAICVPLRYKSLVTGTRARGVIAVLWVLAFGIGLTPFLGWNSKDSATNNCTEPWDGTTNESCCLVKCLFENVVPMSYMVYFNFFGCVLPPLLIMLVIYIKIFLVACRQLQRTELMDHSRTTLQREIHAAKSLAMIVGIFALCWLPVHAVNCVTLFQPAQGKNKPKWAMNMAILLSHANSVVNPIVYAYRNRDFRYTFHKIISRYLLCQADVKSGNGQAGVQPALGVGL
readoutLabel: IC50 (nM)

// solved cases for IC50 follow
CCCn1c(=O)[nH]c2nc(-c3ccc(S(=O)(=O)N4CCN(Cc5cccc(Cl)c5)CC4)cc3)[nH]c2c1=O	1.91
CCn1c(=O)[nH]c2nc(-c3ccc(S(=O)(=O)N4CCN(Cc5ccc(OC)cc5)CC4)cc3)[nH]c2c1=O	5.26

I: CCn1c(=O)[nH]c2nc(-c3ccc(S(=O)(=O)N4CCN(Cc5ccc6c(c5)OCO6)CC4)cc3)[nH]c2c1=O
II: CCn1c(=O)[nH]c2nc(-c3ccc(S(=O)(=O)N4CCN(Cc5cccc(C(F)(F)F)c5)CC4)cc3)[nH]c2c1=O
Input line: Determine, for I and II , which has the greater value of IC50. Write the label of whichever entry you select.
Output line: I

====

target: Adenosine receptor A2a (Rattus norvegicus); experiment: Displacement of [3H]MSX-2 from rat brain striatum adenosine A2A receptor
Sequence (P30543 whole entry): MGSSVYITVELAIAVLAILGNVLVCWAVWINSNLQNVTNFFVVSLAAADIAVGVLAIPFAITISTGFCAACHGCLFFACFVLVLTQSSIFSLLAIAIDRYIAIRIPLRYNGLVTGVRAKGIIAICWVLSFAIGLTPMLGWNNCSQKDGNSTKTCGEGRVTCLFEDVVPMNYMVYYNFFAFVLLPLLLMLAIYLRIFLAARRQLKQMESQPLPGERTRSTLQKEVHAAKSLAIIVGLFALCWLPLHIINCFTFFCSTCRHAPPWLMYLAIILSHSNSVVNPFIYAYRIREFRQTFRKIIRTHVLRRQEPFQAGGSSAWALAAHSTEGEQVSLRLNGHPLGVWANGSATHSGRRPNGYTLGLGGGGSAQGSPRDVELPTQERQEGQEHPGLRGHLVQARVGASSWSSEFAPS
pKi: −log10 of the molar value.
readoutLabel: pKi

CCn1c(=O)[nH]c2nc(-c3ccc(S(=O)(=O)N4CCN(Cc5cccc(C(F)(F)F)c5)CC4)cc3)[nH]c2c1=O	6.20
CCn1c(=O)[nH]c2nc(-c3ccc(S(=O)(=O)N4CCN(Cc5ccc(Cl)cc5)CC4)cc3)[nH]c2c1=O	6.35
CCCn1c(=O)[nH]c2nc(-c3ccc(S(=O)(=O)N4CCN(CCc5ccccc5)CC4)cc3)[nH]c2c1=O	6.17
